Provenance of the data: the supplement of paper PMC10567573

Catalogue of protein stability index values
B1: KRT18 (parent)
chain: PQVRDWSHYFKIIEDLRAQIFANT

Variants of: B1
EXPERIMENTAL DETAILS: protein stability index of a GFP-peptide fusion (GPS, HEK-293T) (PSI 1-6); higher = more stable;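 also: lentivirally expressed fusions sorted by FACS into six bins by GFP to DsRed ratio, PSI derived from sequencing read proportions per bin multiplied by bin number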
CONDITION LABEL: c terminus: a fixed tail appended
The response must contain the number and no unit.

CHANGE | protein stability index
R4Q | 2.53

Answer with the recorded protein stability index of I20V only.
2.08

Answer with the recorded protein stability index of S7M only.
2.18

Answer with the recorded protein stability index of D5Q only.
2.44

Answer with the recorded protein stability index of E14D only.
2.28
